Read-out record for purified human autoBACE-2 (Homo sapiens): Ki
property.measured: Ki (nM)

# structure.smiles.string, property.measured, measured.result
data = [
    ("CN=[S@@]1(=O)C[C@@](C)(c2cc(Nc3nccc4nc(OC)cnc34)ccc2F)NC(=N)C1(C)C", "Ki", 16),
    ("CN=[S@@]1(=O)C[C@@](C)(c2cc(Nc3ccnc4cc(OC)cnc34)ccc2F)NC(=N)C1(C)C", "Ki", 75),
    ("CN=[S@]1(=O)C[C@@](C)(c2cc(Nc3ncccc3OC)ccc2F)NC(=N)C1(C)C", "Ki", 6),
]

---

# tested.on: soluble human BACE1 catalytic domain (Homo sapiens, UniProt P56817)
# Sequence (P56817 75-416 limits assumed): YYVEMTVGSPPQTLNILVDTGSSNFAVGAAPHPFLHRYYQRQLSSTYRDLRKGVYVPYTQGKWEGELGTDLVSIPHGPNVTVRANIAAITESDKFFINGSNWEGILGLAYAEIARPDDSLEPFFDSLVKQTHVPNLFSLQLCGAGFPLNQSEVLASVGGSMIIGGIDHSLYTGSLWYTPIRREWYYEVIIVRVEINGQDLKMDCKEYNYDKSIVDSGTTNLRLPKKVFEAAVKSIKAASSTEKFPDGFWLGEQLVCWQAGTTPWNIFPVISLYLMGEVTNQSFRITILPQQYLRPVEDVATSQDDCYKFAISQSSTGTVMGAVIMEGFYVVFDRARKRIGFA
pKi: −log10 of the molar value.
Reported values of pKi for individual entries
property.measured: pKi

# molecule, measured.result
rows = [
    ("CN=[S@@]1(=O)C[C@@](C)(c2cc(Nc3ccnc4cc(OC)cnc34)ccc2F)NC(=N)C1(C)C [Example 2]", 7.01),
    ("CN=[S@]1(=O)C[C@@](C)(c2cc(Nc3nccc4cc(Br)cnc34)ccc2F)NC(=N)C1(C)C [Example 6]", 8.40),
]
